- study.target: human ML1A (Homo sapiens, UniProt P48039)
- Construct: expressed in transfected cells; host or cells: COS-1 cells, transient transfection (DEAE-dextran) with pcDNAI; membrane homogenates
- Sequence (P48039 whole entry): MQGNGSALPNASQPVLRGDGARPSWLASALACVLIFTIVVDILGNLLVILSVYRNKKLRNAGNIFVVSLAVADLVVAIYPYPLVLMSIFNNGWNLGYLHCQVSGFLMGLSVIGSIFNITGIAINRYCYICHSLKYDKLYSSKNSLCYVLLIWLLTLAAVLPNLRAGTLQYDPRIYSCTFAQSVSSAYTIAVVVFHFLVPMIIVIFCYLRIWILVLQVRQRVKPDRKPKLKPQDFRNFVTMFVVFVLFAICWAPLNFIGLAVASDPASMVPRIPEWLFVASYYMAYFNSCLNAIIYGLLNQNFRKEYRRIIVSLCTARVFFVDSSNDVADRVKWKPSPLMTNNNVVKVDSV
- assay.procedure: Measurement of melatonergic binding: displacement of 2-[125I]-iodomelatonin from membranes of COS-1 cells transfected with human ML1A cDNA
- details: displacement of 2-[125I]-Iodomelatonin (100 pM); COS-1 membranes, human ML1A; 37 °C for 1 hour
Each item that follows carries a reported IC50.

compound | IC50
CCCC(=O)NC[C@@H]1C[C@H]1c1cc(OC)ccc1C#Cc1ccccc1 (single isomer, unassigned) | < 5 nM
CCCC(=O)NC[C@@H]1C[C@H]1c1cc(OC)c(Br)cc1Br (relative stereo) | < 5 nM
CCCC(=O)NC[C@@H]1C[C@H]1c1cccc(OCC2C(c3cccc(OC)c3)C2(C)C)c1 (some centres unmarked) | 5 to 40 nM
CCCC(=O)NC[C@@H]1C[C@H]1c1cc(OC)ccc1-c1ccccc1 | 5 to 40 nM
CCCC(=O)NC[C@@H]1C[C@H]1c1cccc(OCC2CC2c2cccc(OC)c2)c1 (mixture of isomers) | < 5 nM
COc1cccc([C@@H]2C[C@H]2CNC(=O)C(C)C)c1 | 5 to 40 nM
CCCC(=O)NC[C@@H]1C[C@H]1c1cc(OC)ccc1NC(=O)CCC (relative stereo) | 250 to 600 nM
CCCC(=O)NC[C@@H]1C[C@H]1c1cccc(OC)c1 (single isomer, unassigned) [Example 3a] | 5 to 40 nM
CCCC(=O)NC[C@@H]1C[C@H]1c1cccc(OC)c1 [Example 3b] | < 5 nM
CCCC(=O)NC[C@@H]1C[C@H]1c1cc(OC)ccc1C#N | 5 to 40 nM
CCCC(=O)NC[C@@H]1C[C@H]1c1cc(OC)ccc1CCc1ccccc1 (single isomer, unassigned) | 5 to 40 nM

====

- study.target: human ML1A (Homo sapiens)
- Construct: expressed in transfected cells; host or cells: COS-1 cells, transient transfection (DEAE-dextran) with pcDNAI; membrane homogenates
- assay.procedure: Measurement of melatonergic binding: displacement of 2-[125I]-iodomelatonin from membranes of COS-1 cells transfected with human ML1A cDNA
- details: Binding affinity (IC50) at the human melatonin receptor, Table 6: displacement of 2-[125I]-Iodomelatonin; Formula I compounds with X = OCH3, Y and Z = H, R1 = H
pIC50: −log10 of the molar value.
reported.endpoint: pIC50

compound | reading
CCCC(=O)NC(C)[C@@H]1C[C@H]1c1cccc(OC)c1 (single isomer, unassigned; (-)) [Example 14] | 6.60 to 7.40
CCCC(=O)NC[C@H]1[C@H](c2cccc(OC)c2)C1(F)F (racemic) | > 8.30
CCCC(=O)NC(C)[C@@H]1C[C@H]1c1cccc(OC)c1 (single isomer, unassigned) [Example 136] | 7.40 to 8.30
CCCC(=O)NC[C@H]1[C@H](c2cccc(OC)c2)C1(C)C (racemic) | 6.22 to 6.60

====

- study.target: human ML1A (Homo sapiens, UniProt P48039)
- Construct: expressed in transfected cells; host or cells: COS-1 cells, transient transfection (DEAE-dextran) with pcDNAI; membrane homogenates
- assay.procedure: Measurement of melatonergic binding: displacement of 2-[125I]-iodomelatonin from membranes of COS-1 cells transfected with human ML1A cDNA
- details: Table 4 (continued): displacement of 2-[125I]-Iodomelatonin; Formula I compounds with X = OCH3, R = H, G = methylene
pIC50: −log10 of the molar value.
Each item that follows carries a reported pIC50.

compound | pIC50
COc1cccc([C@@H]2C[C@H]2CNC(C)=O)c1 | > 8.30
COc1cccc([C@@H]2C[C@H]2CNC(=O)CC(F)(F)F)c1 (single isomer, unassigned) | > 8.30
CCCC(=O)NC[C@@H]1C[C@H]1c1cc(OC)ccc1I | > 8.30
COc1cccc([C@@H]2C[C@H]2CNC(=O)C2CC2)c1 | > 8.30
CNC(=O)NC[C@@H]1C[C@H]1c1cccc(OC)c1 | > 8.30
CCCC(=O)NC[C@@H]1C[C@H]1c1cc(OC)ccc1-c1ccc(C(F)(F)F)cc1 | 7.40 to 8.30
CCCC(=O)NC[C@@H]1C[C@H]1c1ccc(I)c(OC)c1 | 7.40 to 8.30
COc1cccc([C@@H]2C[C@H]2CNC(=O)CCCCl)c1 (single isomer, unassigned) | 7.40 to 8.30
CCCC(=O)NC[C@@H]1C[C@H]1c1ccc(Cl)c(OC)c1 (racemic) | > 8.30
COc1cccc([C@@H]2C[C@H]2CNC(=O)C2CCCC2)c1 (single isomer, unassigned) | 6.22 to 6.60
